Target: HLA-A*0201 (Homo sapiens, UniProt P04439, D140Y/D185E/D98H/E176V/E277Q/G131W/G231S/I119V/I121R/I166T/I218V/L300P/L318F/N151K/N90K/P208A/P217A/Q86G/Q94H/R138H/R169H/T345S)
Experiment: HLA class I binding assay, purified HLA, inhibition of 125I-labelled probe peptide
Settings: A*[…], A2 supermotif cross-reactive binding data
measure: IC50

{"compound": "CC[C@H](C)[C@H](NC(=O)[C@H](Cc1ccccc1)NC(=O)[C@H](C)NC(=O)[C@H](CCCNC(=N)N)NC(=O)[C@H](CCC(=O)O)NC(=O)[C@H](CC(C)C)NC(=O)[C@H](Cc1ccccc1)NC(=O)[C@H](CCSC)NC(=O)[C@H](CC(C)C)NC(=O)[C@@H](N)CCC(N)=O)C(=O)O [Peptide 1126.16]", "IC50": "98 nM"}

Prompt: Looking for the measured IC50 of CC(C)C[C@H](NC(=O)[C@H](CC(C)C)NC(=O)[C@@H](N)CO)C(=O)N[C@@H](C)C(=O)N[C@@H](CCCCN)C(=O)N[C@@H](CCC(=O)O)C(=O)N[C@@H](CC(C)C)C(=O)N[C@@H](CCCCN)C(=O)N[C@@H](Cc1ccccc1)C(=O)N[C@H](C(=O)O)C(C)C [Peptide 63.0033] , can you help?
Response: 64 nM

Prompt: Quick one: CSCC[C@H](NC(=O)[C@H](CC(=O)O)NC(=O)[C@H](CC(N)=O)NC(=O)[C@H](CO)NC(=O)[C@H](CC(C)C)NC(=O)[C@H](CC(C)C)NC(=O)[C@@H](N)Cc1c[nH]cn1)C(=O)N[C@@H](CS)C(=O)N[C@@H](C)C(=O)N[C@@H](CCCNC(=N)N)C(=O)N[C@@H](C)C(=O)O [Peptide 1419.15]
Response: 417 nM

====

Tested on: .221A2.1 peptide-loaded target cells and cells expressing endogenous antigen
Assay: Primary in vitro CTL induction with peptide-pulsed DC, CTL lytic activity by 51Cr release
Assay type: cell-based, human
Details: immunogenicity, CTL recognition of the peptide, positive/tested
measure: A2 peptide

{"compound": "CC[C@H](C)[C@H](NC(=O)[C@H](CO)NC(=O)[C@@H]1CCCN1C(=O)[C@H](CC(C)C)NC(=O)CN)C(=O)N1CCC[C@H]1C(=O)N[C@H](C(=O)N[C@@H](Cc1c[nH]cn1)C(=O)N1CCC[C@H]1C(=O)N[C@H](C(=O)O)C(C)C)C(C)C [Peptide 1389.24]", "A2 peptide": "4/4"}

Turning now to a further record.
Prompt: Query: A2 peptide; subject: CSCC[C@H](NC(=O)[C@H](CC(C)C)NC(=O)[C@@H](N)CC(=O)O)C(=O)N[C@@H](CC(C)C)C(=O)N[C@@H](CC(C)C)C(=O)N[C@@H](CCCNC(=N)N)C(=O)N[C@@H](CC(C)C)C(=O)N[C@@H](CO)C(=O)N[C@@H](CCC(=O)O)C(=O)N1CCC[C@H]1C(=O)N[C@H](C(=O)O)C(C)C [Peptide 1419.13]
Response: 2/2

====

Biological target: HLA-A*0203 (Homo sapiens, UniProt P04439, A173T/D140Y/D185E/D98H/E277Q/G131W/G231S/I119V/I121R/I166T/I218V/L180W/L300P/L318F/N151K/N90K/P208A/P217A/Q86G/Q94H/R138H/R169H/T345S)
Assay: HLA class I binding assay, purified HLA, inhibition of 125I-labelled probe peptide
Conditions: A*[…], A2 supermotif cross-reactive binding data
Hi! Could you tag entries with IC50 below 7 nM as y, and those at or above as n? Much appreciated.

Below, 5 compounds whose answers are already recorded.
{"compound": "CC[C@H](C)[C@H](NC(=O)[C@H](Cc1c[nH]c2ccccc12)NC(=O)[C@@H](NC(=O)[C@@H](NC(=O)[C@H](CO)NC(=O)[C@H](CC(C)C)NC(=O)[C@@H](N)[C@@H](C)O)C(C)C)[C@@H](C)O)C(=O)NCC(=O)N[C@H](C(=O)O)C(C)C [Peptide 60.0217]", "category.label": "n"}
{"compound": "CC(C)C[C@H](NC(=O)[C@H](CO)NC(=O)[C@H](C)NC(=O)[C@H](C)NC(=O)[C@H](CCCNC(=N)N)NC(=O)[C@H](C)NC(=O)[C@H](CC(C)C)NC(=O)[C@@H](N)CC(C)C)C(=O)N[C@@H](CO)C(=O)N[C@H](C(=O)O)C(C)C [Peptide 63.0031]", "category.label": "n"}
{"compound": "CC(C)C[C@H](NC(=O)[C@H](CC(C)C)NC(=O)[C@@H](N)CC(C)C)C(=O)N[C@@H](C)C(=O)N[C@@H](CCCNC(=N)N)C(=O)N[C@@H](C)C(=O)N[C@@H](C)C(=O)N[C@@H](CO)C(=O)N[C@H](C(=O)O)C(C)C [Peptide 60.0201]", "category.label": "y"}
{"compound": "CC(C)C[C@H](NC(=O)[C@H](CCC(=O)O)NC(=O)[C@H](CCCCN)NC(=O)[C@H](C)NC(=O)[C@H](CC(C)C)NC(=O)[C@@H](N)C(C)C)C(=O)N[C@@H](CCCCN)C(=O)N[C@@H](Cc1ccccc1)C(=O)N[C@H](C(=O)N[C@H](C(=O)O)C(C)C)C(C)C [Peptide 63.0034]", "category.label": "n"}
{"compound": "CC(C)C[C@H](NC(=O)[C@@H](NC(=O)[C@H](CO)NC(=O)[C@H](CCCNC(=N)N)NC(=O)[C@H](CC(=O)O)NC(=O)[C@H](CC(C)C)NC(=O)[C@H](Cc1c[nH]c2ccccc12)NC(=O)[C@H](Cc1ccccc1)NC(=O)[C@H](Cc1ccccc1)NC(=O)[C@H](CC(C)C)NC(=O)[C@@H](N)CC(C)C)C(C)C)C(=O)O [Peptide 63.0139]", "category.label": "y"}

# evaluate next
Prompt: A record lists CC[C@H](C)[C@H](NC(=O)[C@H](Cc1c[nH]c2ccccc12)NC(=O)[C@@H](NC(=O)[C@@H](NC(=O)[C@H](CO)NC(=O)[C@H](CC(C)C)NC(=O)[C@@H](NC(=O)[C@H](CC(C)C)NC(=O)[C@H](Cc1ccccc1)NC(=O)[C@@H](NC(=O)[C@@H](N)C(C)C)C(C)C)[C@@H](C)O)C(C)C)[C@@H](C)O)C(=O)O [Peptide 1419.25] . Is its IC50 below 7 nM?
Response: n

====

Biological target: HLA-A*0202 (Homo sapiens, UniProt P04439, D140Y/D185E/D98H/E176V/E277Q/G131W/G231S/I119L/I121R/I166T/I218V/L180W/L300P/L318F/N151K/N90K/P208A/P217A/Q67R/Q86G/Q94H/R138H/R169H/T345S)
Assay: HLA class I binding assay, purified HLA, inhibition of 125I-labelled probe peptide
Details: A2 supermotif cross-reactive binding data
measure: IC50

{"molecule": "CC(C)C[C@H](NC(=O)[C@H](CCC(=O)O)NC(=O)[C@H](CCCNC(=N)N)NC(=O)[C@H](CC(C)C)NC(=O)[C@@H](N)CCCCN)C(=O)N[C@@H](CO)C(=O)N[C@@H](CCC(=O)O)C(=O)N[C@@H](CC(C)C)C(=O)N[C@@H](CO)C(=O)N[C@H](C(=O)O)C(C)C [Peptide 63.0048]", "measure": "IC50", "observed.measurement": "9.1 nM"}

Turning to the following molecule.
Prompt: # input molecule: CC(C)C[C@H](NC(=O)[C@H](Cc1c[nH]cn1)NC(=O)[C@H](CC(C)C)NC(=O)[C@H](CO)NC(=O)[C@@H](NC(=O)[C@H](CS)NC(=O)[C@H](CCC(N)=O)NC(=O)[C@H](CC(C)C)NC(=O)[C@@H](N)CO)C(C)C)C(=O)O [Peptide 60.0191] ; wanted: its IC50
Response: 51 nM

====

# maps each entry to its IC50
Molecular target: HLA-A*0203 (Homo sapiens, UniProt P04439, A173T/D140Y/D185E/D98H/E277Q/G131W/G231S/I119V/I121R/I166T/I218V/L180W/L300P/L318F/N151K/N90K/P208A/P217A/Q86G/Q94H/R138H/R169H/T345S)
Experiment: HLA class I binding assay, purified HLA, inhibition of 125I-labelled probe peptide
Conditions: A*[…], A2 supermotif cross-reactive binding data
Write down the numeric answer in nM and omit the unit.

Example entries begin here.
{"molecule": "CSCC[C@H](NC(=O)[C@H](CCC(N)=O)NC(=O)[C@H](CC(C)C)NC(=O)CNC(=O)[C@H](CO)NC(=O)[C@@H](NC(=O)[C@@H](N)[C@@H](C)O)C(C)C)C(=O)N[C@@H](C)C(=O)N[C@H](C(=O)O)C(C)C [Peptide 60.0213]", "IC50, nM": 122}
{"molecule": "CC(C)C[C@H](NC(=O)[C@H](Cc1c[nH]c2ccccc12)NC(=O)[C@H](Cc1ccccc1)NC(=O)[C@H](Cc1ccccc1)NC(=O)[C@H](CC(C)C)NC(=O)[C@H](CC(C)C)NC(=O)[C@@H](N)Cc1ccccc1)C(=O)N[C@@H](CC(=O)O)C(=O)N[C@@H](CCCNC(=N)N)C(=O)N[C@@H](CO)C(=O)N[C@H](C(=O)O)C(C)C [Peptide 63.0138]", "IC50, nM": 2.8}
{"molecule": "CC(C)C[C@H](NC(=O)[C@H](Cc1ccccc1)NC(=O)[C@H](CC(C)C)NC(=O)[C@H](Cc1ccccc1)NC(=O)CNC(=O)[C@H](CC(C)C)NC(=O)[C@H](CO)NC(=O)[C@H](CC(C)C)NC(=O)[C@H](CO)NC(=O)[C@H](C)NC(=O)[C@H](C)N)C(=O)O [Peptide 63.0137]", "IC50, nM": 53}

Prompt: Quick one: IC50 of CC(C)C[C@H](NC(=O)[C@@H](N)Cc1ccccc1)C(=O)N[C@@H](CC(N)=O)C(=O)N[C@@H](CCC(=O)O)C(=O)N[C@@H](CO)C(=O)N[C@@H](Cc1ccc(O)cc1)C(=O)N[C@@H](CCCCN)C(=O)N[C@@H](Cc1c[nH]cn1)C(=O)N[C@@H](CCC(=O)O)C(=O)N[C@@H](CCC(N)=O)C(=O)N[C@H](C(=O)O)C(C)C [Peptide 1419.55] ?
Response: 5.6

Cited source for all entries: patent US20040037843A1
